- Test details: TOR pathway LAP4-GFP level changes – S. cerevisiae, multiplex flow cytometry, primary screen (AID 1873)
- Assay setup: S. cerevisiae LAP4-GFP expression, 3 h, at 10 µM, stronger effect = higher value
Records with an inconclusive call do not appear.
Values of GFP response vs DMSO greater than or equal to 90% map to label 1; values below map to label 0.

Here are 5 molecules together with their reported answers.
Molecule: CC1(C)Oc2ccc(C#N)cc2[C@@H](N2CCCC2=O)[C@@H]1O
Category label: label 0
//
Molecule: CC(C)(C)OC(=O)NCCC(=O)Oc1ccc2ccc(=O)oc2c1
Category label: label 0
//
Molecule: COC(=O)[C@@H](N)CS
Category label: label 1
//
Molecule: O=C(CN1C(=O)c2ccccc2S1(=O)=O)Nc1ccccc1
Category label: label 0
//
Molecule: CS(=O)c1ccccc1O (configuration not stated)
Category label: label 1

Next:
Check the entry `COc1ccc2nc(C)cc(Nc3ccccc3O)c2c1` : does GFP response vs DMSO equal or exceed 90%? label 1
